assay-target: UniProt:Q9NYA1
protocol-notes: Inhibition of human C-terminal His6-tagged SPHK1 expressed in fall armyworm sf9 cells assessed as reduction in ADP formation using sphingosine as substrate preincubated for 15 mins followed by substrate addition after 1 hr by transcreener-based fluorescence polarization assay
pIC50: −log10 of the molar value.
Overview of reported pIC50 across a group of compounds:
property-name: pIC50

Cc1cc(CS(=O)(=O)c2ccccc2)cc(OCc2ccc(CN3C[C@@H](O)[C@@H](O)C3)cc2)c1 = 8.41
Cc1cc(CS(=O)(=O)c2ccccc2)cc(OCc2ccc(CN3CC[C@H](O)C3)cc2)c1 = 8.52
Cc1nc2ccc(-c3ccc(CN4CCC[C@@H]4CO)cc3)cc2n1Cc1ccccc1 = 6.36
Cc1nc2ccc(-c3ccc(CN4CCC[C@@H]4CO)cc3)cc2n1CCC(C)C = 8.15
OC[C@H]1CCCN1Cc1ccc(COc2cccc(C3CCCCC3)c2)cc1 = 9.15
Cc1cc(CS(=O)(=O)c2ccccc2)cc(OCc2ccc3[nH]c(N)nc3c2)c1 = 5.77
O=C(Nc1cccc(OCc2ccc(CN3CCC[C@@H]3CO)cc2)c1)c1ccccc1 = 5.44
Cc1cc(CS(=O)(=O)c2ccccc2)cc(OCc2ccc3[nH]cnc3c2)c1 = 4.32
Cc1nc2ccc(-c3ccc(CN4CCC[C@H]4CO)cc3)cc2n1C[C@H]1CCCO1 = 4.51
Cc1nc2ccc(-c3ccc(CN4CCC[C@@H]4CO)cc3)cc2n1CC(C)C = 6.54
O=S(=O)(Cc1cccc(OCc2ccc(CN3CCC[C@@H]3CO)cc2)c1)c1ccccc1 = 8.70
Cc1nc(-c2cccc(OCc3ccc(CN4CCC[C@@H]4CO)cc3)c2)no1 = 8.35
O=S(=O)(Cc1cccc(OCc2ccc(CN3CCC[C@@H]3CO)cc2)c1)C1CC1 = 8.00
Cc1nc2ccc(-c3ccc(CN4CCC[C@@H]4CO)cc3)cc2n1C[C@H]1CCCO1 = 6.72
Cc1cc(CS(=O)(=O)c2ccccc2)cc(OCc2ccc(CN3CC[C@@H](O)C3)cc2)c1 = 7.55
CC(C)c1cccc(OCc2ccc(CN3CCC[C@@H]3CO)cc2)c1 = 9.10
Cc1nc2ccc(-c3ccc(CN4CCC[C@@H]4CO)cc3)cc2n1CCC1CCC1 = 8.10
Cc1cc(CS(=O)(=O)c2ccccc2)cc(OCc2ccc(CN3C[C@@H](O)[C@H](O)C3)cc2)c1 = 8.70
Cc1nc2ccc(-c3ccc(CN4CCC[C@@H]4CO)cc3)cc2n1CC1CCCC1 = 7.96

----------
Below: a set of entries, each annotated with reported IC50.
assay-target: Sphingosine kinase 1 (Homo sapiens, UniProt Q9NYA1)
Sequence (Q9NYA1 whole entry): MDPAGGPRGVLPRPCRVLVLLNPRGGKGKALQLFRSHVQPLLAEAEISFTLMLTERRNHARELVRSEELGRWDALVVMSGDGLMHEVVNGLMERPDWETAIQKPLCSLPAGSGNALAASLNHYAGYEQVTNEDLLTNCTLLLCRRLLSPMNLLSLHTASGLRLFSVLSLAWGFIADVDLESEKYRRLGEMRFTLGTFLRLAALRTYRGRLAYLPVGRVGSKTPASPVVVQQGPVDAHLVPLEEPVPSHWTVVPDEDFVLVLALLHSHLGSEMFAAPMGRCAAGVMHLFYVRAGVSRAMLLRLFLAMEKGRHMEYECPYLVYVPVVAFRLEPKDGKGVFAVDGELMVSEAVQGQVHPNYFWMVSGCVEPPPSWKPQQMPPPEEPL
protocol-notes: Inhibition of SPHK1 in human MDA1483 cells using C17-sphingosine as substrate assessed as reduction in C17-S1P formation preincubated for 30 mins with substrate measured after 15 mins by LC-MS analysis
Assay type: cell-based
property-name: IC50 (nM)

Cc1cc(CS(=O)(=O)c2ccccc2)cc(OCc2ccc(CN3C[C@@H](O)[C@H](O)C3)cc2)c1 = 0.17
Cc1nc2ccc(-c3ccc(CN4CCC[C@H]4CO)cc3)cc2n1C[C@H]1CCCO1 = 9800
Cc1cc(CS(=O)(=O)c2ccccc2)cc(OCc2ccc3[nH]cnc3c2)c1 = 27000
Cc1cc(CS(=O)(=O)c2ccccc2)cc(OCc2ccc(CN3CC[C@H](O)C3)cc2)c1 = 0.03
OC[C@H]1CCCN1Cc1ccc(COc2cccc(C3CCCCC3)c2)cc1 = 0.03
Cc1nc(-c2cccc(OCc3ccc(CN4CCC[C@@H]4CO)cc3)c2)no1 = 1.7
O=S(=O)(Cc1cccc(OCc2ccc(CN3CCC[C@@H]3CO)cc2)c1)c1ccccc1 = 0.3
Cc1nc2ccc(-c3ccc(CN4CCC[C@@H]4CO)cc3)cc2n1CCC1CCC1 = 4
Cc1cc(CS(=O)(=O)c2ccccc2)cc(OCc2ccc3[nH]c(N)nc3c2)c1 = 180
